The reported measurements were obtained from the supplement of paper PMC9170038.

Test system: MS2 coat protein
Assay Method Text: apparent KD of MS2 coat protein; designed switch direction (-1 OFF switch, 1 ON switch): 1; higher = weaker reporter binding
Measurement Setup: Eterna round: R95; input ligand: microRNA oligo, concentration not stated
Entry class follows apparent KD of MS2 coat protein: band 1: < 20 nM; band 2: ≥ 20 nM and < 200 nM; band 3: ≥ 200 nM

Seq	Category
GGAGCCGGCACUGAGGAUAUUCAUAAUAAAACAUGAGGAUCACCCAUGUAGGCCAGAAGGCCUUGGGAGAAGGCAGGUCGGCUCG [Mat - Same State 2 - Mod of UCT - D65] (puzzle: Same State 2)	band 2
ACGCAGCUGGGUAAGGAUAUCGGUGGUAAAACAUGAGGAUCACCCAUGUCCGAAGCUCGGACUUCCGAGAAGGUGCCCGGCUGCG [Soinraesar Omei Mod 6] (puzzle: Same State 2)	band 3
GGAUCCGGCACUGAGGAUAUUCAUAUUUAAACAUGAGGAUCACCCAUGUAGGCCAGAAGGCCUUGGGAGAAGGCAGGUCGGCUCG [salish99_ss2_r3_082] (puzzle: Same State 2)	band 3
AGCUAUCGCGUACGAUAGCUGAAGCAUGUACAUGAGGAUCACCCAUGUCAUGUGCAGGCUUUUUGCUCGUCUUAUUG [JL-shm-2.30 JL mod] (puzzle: Sensor for hsa-mir-208a)	band 1
AAUAGUUGCGGGCAGGAUAUGUAUUAAAAUACAUGAGGAUCACCCAUGUGCGGGUAUAACACCCGACAGAAGGGCCAAUCGCGAC [Mat - Same State 2 - Mod of UCT - D94] (puzzle: Same State 2)	band 3
AUAAAACAUGAGGAUCACCCAUGUCUACAAAGUCGAGGAUAUGGGCAAAUAAAAUAAGAACCAGAAGGCGAAUAAU [salish99_ss1_r3_044] (puzzle: Same State 1)	band 3
CUCAAACAUGAGGAUCACCCAUGUUUUUUCAUGGGAGGAUAUCUAAGUUCAUUAUAUUCAGGAGAAGGCCUAUCUC [× ×•×ª×• ×ž×“×™× ×” × ×—×ª-06] (puzzle: Same State 1)	band 2
GUCGGGCAAGCUUUUUUCUCGUAGUGUAAACAUGAGGAUCACCCAUGUGCUCGCCCUGGAUCUUUGGAUCGCAGAAA [Isxevevere] (puzzle: Sensor for hsa-mir-208a)	band 2
AUCCUACAUGAGGAUCACCCAUGUGACGCCUCGAUAGGAUAUGCGUGUGCCUUGGCGCAUGCAGAAGGAUUGUUGC [JL Aveso mod 7] (puzzle: Same State 1)	band 1
AGCUUACAUGAGGAUCACCCAUGUUUUAGCCAGACAGGAUAUGGGUAUCUAAAACACAACCCAGAAGGGUCAAAAC [Usveriri] (puzzle: Same State 1)	band 3
GCCACACAUGAGGAUCACCCAUGUAAUUACAUGGGAGGAUAUCAGUGCUCGAAAGAGCACUGAGAAGGCCUGUGGC [SS1 - Omei A v3] (puzzle: Same State 1)	band 2
GUUAAACAUGAGGAUCACCCAUGUAAUAAUAUGGGAGGAUAUCAGAAAUUAUGUAUGAAAUGAGAAGGCCUAAUUG [Mat - Same State 1 - Mod of Eli - D79] (puzzle: Same State 1)	band 3
UUGCGCUGUCGAGAGGAUAUGCGGUGUUGGACAUGAGGAUCACCCAUGUUAGCGAUAGCUUUACGGUAGAAGGCUCUUCAGCUGC [salish99_ss2_r3_097] (puzzle: Same State 2)	band 2
CAGCGCUGUCGAGAGGAUAUGUGGUGAUGGACAUGAGGAUCACCCAUGUUAGCGACAGCAUCACGGCAGAAGGCUCUACCGCUGC [Soteed Omei mod 30] (puzzle: Same State 2)	band 2
GGUCCAGCCUGAGCUGGACAAAAGCAUGUACAUGAGGAUCACCCAUGUUAUGUACAAGCUUUUUGCUCGUCUUAAAA [JL mod - D87 - 10] (puzzle: Sensor for hsa-mir-208a)	band 1
UUCCACGUUGCACAGGAUAUCCAAGCCGUGACAUGAGGAUCACCCAUGUCUAGUAGGCGACUAAGGGAGAAGGGUGUUGUCGUGC [Biuser] (puzzle: Same State 2)	band 1
AUUAAACAUGAGGAUCACCCAUGUCAACAUAGUCGAGGAUAUGGGCAAAUAAAAUAAGAACCAGAAGGCGAAUAAU [salish99_ss1_r3_075] (puzzle: Same State 1)	band 3
CUCAAAACAAGUUGCAGUGUUCGUCUUUAACAUGAGGAUCACCCAUGUAAUAACCCGGUGGAAGCGCUCGGGCCACC [Gereerle] (puzzle: Sensor for hsa-mir-208a)	band 1
CAGUGCUGUUGAGAGGAUAUGCGGCGACGGACAUGAGGAUCACCCAUGUUAGCGACAGCGUUGCGGCAGAAGGCUCUGCCCACUG [Soteed Omei mod 49] (puzzle: Same State 2)	band 1
